tested on: human endothelial cells; experiment: Acute ONOO− (peroxynitrite) release from human endothelial cells of white and black donors; type: cell-based; details: endothelial cells from black donors; acute treatment
assayReadout: Acute ONOO− Release, Black Donors ONOO− (nM)
One number for each entry, in nM.

Provide the reported Acute ONOO− Release, Black Donors ONOO− of each entry below, same order.
1. OC(CNCC(O)C1CCc2cc(F)ccc2O1)C1CCc2cc(F)ccc2O1 (racemic) [nebivolol]
2. O[C@H](CNC[C@@H](O)[C@H]1CCc2cc(F)ccc2O1)[C@@H]1CCc2cc(F)ccc2O1 [d-nebivolol, reference compound]
3. O=C(O)C1OC(OC(CNCC(O)C2CCc3cc(F)ccc3O2)C2CCc3cc(F)ccc3O2)C(O)C(O)C1O [G-UDa, d-Nebivolol-11-O-β-D-glucuronide]
4. O[C@@H](CNC[C@H](O)[C@H]1CCc2cc(F)ccc2O1)[C@@H]1CCc2cc(F)ccc2O1 [l-nebivolol, reference compound]
5. O=C(O)C1OC(OC(CNCC(O)C2CCc3cc(F)ccc3O2)C2CCc3cc(F)ccc3O2)C(O)C(O)C1O (single isomer, unassigned) [G-UDb, l-Nebivolol-11-O-β-D-glucuronide]
6. O=C(O)C1OC(OC(CNCC(O)C2CCc3cc(F)ccc3O2)C2CCc3cc(F)ccc3O2)C(O)C(O)C1O (single isomer, unassigned) [G-UDd, l-Nebivolol-11′-O-β-D-glucuronide]
7. O=C(O)C1OC(OC(CNCC(O)C2CCc3cc(F)ccc3O2)C2CCc3cc(F)ccc3O2)C(O)C(O)C1O [G-UDc, d-Nebivolol-11′-O-β-D-glucuronide]

Result:
1: 242; 2: 116; 3: 238; 4: 267; 5: 225; 6: 193; 7: 204

* * *

tested on: Human Umbilical Vein Endothelial Cells (HUVEC); experiment: Acute NO release from HUVEC of white and black American donors, electrochemical nanosensors; format: cell-based; conditions: HUVEC from black American donors; acute treatment 1.0 μM; mean±S.D. (n=5)
assayReadout: Acute NO Release, Black Donors NO
Please format your answer as a value with the unit trailing.

Sample answers from the record:
{"columns": ["compound", "assaySystem", "Acute NO Release, Black Donors NO"],
 "data": [
  ["O[C@@H](CNC[C@H](O)[C@H]1CCc2cc(F)ccc2O1)[C@@H]1CCc2cc(F)ccc2O1 [l-nebivolol, reference compound]", "Human Umbilical Vein Endothelial Cells (HUVEC)", "192 ± 9 nM"],
  ["O=C(O)C1OC(OC(CNCC(O)C2CCc3cc(F)ccc3O2)C2CCc3cc(F)ccc3O2)C(O)C(O)C1O (single isomer, unassigned) [G-UDd, l-Nebivolol-11′-O-β-D-glucuronide]", "Human Umbilical Vein Endothelial Cells (HUVEC)", "117 ± 8 nM"],
  ["OC(CNCC(O)C1CCc2cc(F)ccc2O1)C1CCc2cc(F)ccc2O1 (racemic) [nebivolol]", "Human Umbilical Vein Endothelial Cells (HUVEC)", "148 ± 10 nM"],
  ["O=C(O)C1OC(OC(CNCC(O)C2CCc3cc(F)ccc3O2)C2CCc3cc(F)ccc3O2)C(O)C(O)C1O (single isomer, unassigned) [G-UDb, l-Nebivolol-11-O-β-D-glucuronide]", "Human Umbilical Vein Endothelial Cells (HUVEC)", "139 ± 12 nM"],
  ["O=C(O)C1OC(OC(CNCC(O)C2CCc3cc(F)ccc3O2)C2CCc3cc(F)ccc3O2)C(O)C(O)C1O [G-UDc, d-Nebivolol-11′-O-β-D-glucuronide]", "Human Umbilical Vein Endothelial Cells (HUVEC)", "129 ± 10 nM"]
]}

Provide the reported Acute NO Release, Black Donors NO of each entry below, same order.
1. O=C(O)C1OC(OC(CNCC(O)C2CCc3cc(F)ccc3O2)C2CCc3cc(F)ccc3O2)C(O)C(O)C1O [G-UDa, d-Nebivolol-11-O-β-D-glucuronide]
2. O[C@H](CNC[C@@H](O)[C@H]1CCc2cc(F)ccc2O1)[C@@H]1CCc2cc(F)ccc2O1 [d-nebivolol, reference compound]

Result:
1. 144 ± 10 nM
2. 87 ± 6 nM

Entry source: patent US20070014734A1
